- System: A549 tumors
- measurement-notes: Antitumor activity in nude mouse xenograft model, A549
- Type: in vivo
- test-settings: nude mice, 1 mg/kg/day i.p., Wit = withacnistin mixture
experimental-readout: % Inhibition of tumor growth (%)
Give the number; % is assumed, so skip it.

Qu. Report % Inhibition of tumor growth for CC(=O)OC(C)(C)/C=C/C(=O)[C@](C)(O)[C@H]1[C@H](O)C[C@@]2(C)[C@@H]3CC=C4[C@@H](C[C@H](O)C(=O)C4(C)C)[C@]3(CO)C(=O)C[C@]12C please.
Ans. 11.1

Qu. Report % Inhibition of tumor growth for CC(=O)OC[C@]12CC[C@H]3[C@@H](C[C@H]4O[C@]45[C@@H](O)C=CC(=O)[C@]35C)[C@@H]1CC[C@@H]2[C@H](C)[C@H]1CC(C)=C(C)C(=O)O1 please.
Ans. 73.1

Qu. Report % Inhibition of tumor growth for CC(=O)OC(C)(C)/C=C/C(=O)[C@](C)(O)[C@H]1[C@H](O)C[C@@]2(C)[C@@H]3CC=C4[C@@H](C=C(O)C(=O)C4(C)C)[C@]3(C)C(=O)C[C@]12C please.
Ans. 48.5

Qu. Report % Inhibition of tumor growth for CC(C)(O)/C=C/C(=O)[C@](C)(O)[C@H]1[C@H](O)C[C@@]2(C)[C@@H]3CC=C4[C@@H](C=C(O)C(=O)C4(C)C)[C@]3(C)C(=O)C[C@]12C please.
Ans. 55.4
